- SYSTEM_TESTED: Histamine H3 receptor (Rattus norvegicus, UniProt Q9QYN8)
- Sequence (Q9QYN8 whole entry): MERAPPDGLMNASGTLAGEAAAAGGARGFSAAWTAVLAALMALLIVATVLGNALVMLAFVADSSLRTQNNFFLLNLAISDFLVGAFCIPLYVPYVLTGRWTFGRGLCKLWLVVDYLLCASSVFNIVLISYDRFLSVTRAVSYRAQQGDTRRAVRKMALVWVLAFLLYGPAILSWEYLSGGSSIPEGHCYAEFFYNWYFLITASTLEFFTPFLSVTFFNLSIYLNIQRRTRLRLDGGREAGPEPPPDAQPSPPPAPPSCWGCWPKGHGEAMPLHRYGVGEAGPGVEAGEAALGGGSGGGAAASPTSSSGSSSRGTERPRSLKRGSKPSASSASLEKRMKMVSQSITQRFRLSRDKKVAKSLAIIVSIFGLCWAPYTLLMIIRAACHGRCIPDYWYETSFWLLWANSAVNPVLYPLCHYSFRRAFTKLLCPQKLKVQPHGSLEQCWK
pKi: −log10 of the molar value.

- CHEM_SMILES: "Ic1ccc(CCCOCCCc2cnc[nH]2)cc1"
  pKi: 7.50
- CHEM_SMILES: "Ic1cccc(COCCCc2cnc[nH]2)c1"
  pKi: 8.20
- CHEM_SMILES: "Cc1ccc(C(=O)OCCCc2cnc[nH]2)cc1I"
  pKi: 7.50
- CHEM_SMILES: "Brc1ccc(COCCCc2cnc[nH]2)cc1"
  pKi: 7.90
- CHEM_SMILES: "O=C(CCc1ccc(I)cc1)OCCCc1cnc[nH]1"
  pKi: 7.30
